The reported measurements were obtained from patent US11034725B2.

Tested on: His-EGF(A)-Fc
METHOD: His-EGF(A)-Fc TR-FRET counterscreen
TEST SETTINGS: TR-FRET counterscreen; Table 8D; * = some inhibition at highest concentrations, not sufficient to fit an IC50
pIC50: −log10 of the molar value. Bridge positions count the residues as written; N and C are the ends. Square brackets hold non-standard residues; d marks the D form. Peptide text beside a SMILES is read from it.
Provide the recorded pIC50 for the entries that follow.

### Prompt Query pIC50 for CC[C@H](C)[C@@H]1NC(=O)[C@H](CCCNC(=N)N)NC(=O)[C@H](CCC(N)=O)NC(=O)[C@H](CC(C)C)NC(=O)[C@H](CC(N)=O)NC(=O)[C@H](Cc2c[nH]c3ccccc23)NC(=O)[C@@H]2CCCN2C(=O)[C@H](CC(C)C)NC(=O)[C@H](CCCNC(=N)N)NC(=O)[C@@H](NC(C)=O)CSSC[C@@H](C(N)=O)NC(=O)[C@H]2CCCN2C(=O)[C@H](CC(C)C)NC(=O)CNC1=O [Compound 99] (Ac-CRLPWNLQRIGL[dP]C-NH2; disulfide 1-14)
### Response < 4.30

### Prompt Query pIC50 for CC[C@H](C)[C@@H]1NC(=O)[C@H](CCCNC(=N)N)NC(=O)[C@H](CCC(N)=O)NC(=O)[C@H](CC(C)C)NC(=O)[C@H](CC(N)=O)NC(=O)[C@H](Cc2c[nH]c3ccccc23)NC(=O)[C@@H]2CCCN2C(=O)[C@H](CC(C)C)NC(=O)[C@H](CCCNC(=N)N)NC(=O)[C@@H](NC(C)=O)CSSC[C@@H](C(N)=O)NC(=O)[C@@H]2CCCN2C(=O)[C@H](CC(C)C)NC(=O)[C@H](C)NC1=O [Compound 70] (Ac-CRLPWNLQRIALPC-NH2; disulfide 1-14)
### Response < 4.30

###

ASSAY SYSTEM: PCSK9Δhelix (Homo sapiens, UniProt Q8NBP7)
Construct: Human PCSK9 construct M1-Q692 with an engineered TEV site (residue deletion Y166, R167); made in house; host or cells: CHO
Sequence (Q8NBP7 with tags, fused parts or gaps limits assumed): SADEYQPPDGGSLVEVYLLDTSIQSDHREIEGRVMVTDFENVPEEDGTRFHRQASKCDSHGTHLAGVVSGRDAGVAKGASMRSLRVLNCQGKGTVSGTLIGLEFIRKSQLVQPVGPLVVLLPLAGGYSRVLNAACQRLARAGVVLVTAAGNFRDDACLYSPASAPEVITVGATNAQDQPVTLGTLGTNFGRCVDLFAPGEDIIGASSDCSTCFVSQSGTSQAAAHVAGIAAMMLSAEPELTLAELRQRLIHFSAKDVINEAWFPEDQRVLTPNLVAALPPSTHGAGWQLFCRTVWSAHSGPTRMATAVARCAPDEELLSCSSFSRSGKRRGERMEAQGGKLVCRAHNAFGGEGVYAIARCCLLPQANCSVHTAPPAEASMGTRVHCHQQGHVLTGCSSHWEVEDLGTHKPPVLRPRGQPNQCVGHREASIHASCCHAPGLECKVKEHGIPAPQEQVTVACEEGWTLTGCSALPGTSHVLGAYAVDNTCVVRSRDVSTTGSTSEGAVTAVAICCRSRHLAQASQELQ
Sequence (Q8NBP7 31-152 partner limits assumed): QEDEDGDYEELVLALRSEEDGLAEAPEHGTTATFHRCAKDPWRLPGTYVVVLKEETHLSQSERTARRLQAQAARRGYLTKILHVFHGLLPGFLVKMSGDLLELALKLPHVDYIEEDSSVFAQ
METHOD: PCSK9Δhelix/Ab20 TR-FRET binding assay
TEST SETTINGS: Table 11, average ±S.D. of three experiments; read-out: Ab20 IC50
Square brackets hold non-standard residues; d marks the D form. Peptide text beside a SMILES is read from it. hArg = N=C(N)NCCCC[C@H](N)C(=O)O
METRIC NAME: pIC50
The meaning of pIC50 here: minus log10 of the concentration in molar units.

### Prompt Give pIC50 only, for CC[C@H](C)[C@H](NC(=O)[C@H](CCCCNC(=N)N)NC(=O)[C@@H](NC(=O)[C@H](CC(C)C)NC(=O)[C@H](CC(N)=O)NC(=O)[C@H](Cc1c[nH]c2ccccc12)NC(C)=O)C(C)C)C(=O)NCC(=O)N[C@@H](CC(C)C)C(=O)N[C@@H](CC(C)C)C(=O)N[C@@H](CCCNC(=N)N)C(N)=O [Compound 192, Ac-WNLV(homoR)IGLLR-NH2] (Ac-WNLV[hArg]IGLLR-NH2) , using PCSK9Δhelix (Homo sapiens, UniProt Q8NBP7) data.
### Response 5.26

### Prompt Give pIC50 only, for CC[C@H](C)[C@H](NC(=O)[C@H](CCCCNC(=N)N)NC(=O)[C@@H](NC(=O)[C@H](CC(C)C)NC(=O)[C@H](CC(N)=O)NC(=O)[C@H](Cc1c[nH]c2ccccc12)NC(=O)CNC(=O)[C@@H]1CCCN1C(=O)[C@H](Cc1ccc(O)cc1)NC(=O)[C@H](CO)NC(=O)[C@H](CCC(=O)O)NC(C)=O)C(C)C)C(=O)NCC(=O)N[C@@H](CC(C)C)C(=O)N[C@@H](CC(C)C)C(=O)N[C@@H](CCCNC(=N)N)C(N)=O [Compound 231] (Ac-ESYPGWNLV[hArg]IGLLR-NH2) , using PCSK9Δhelix (Homo sapiens, UniProt Q8NBP7) data.
### Response 5.83

### Prompt Give pIC50 only, for CC[C@H](C)[C@H](NC(=O)[C@H](CCCCNC(=N)N)NC(=O)[C@@H](NC(=O)[C@H](CC(C)C)NC(=O)[C@H](CC(N)=O)NC(=O)[C@H](Cc1c[nH]c2ccccc12)NC(=O)CNC(=O)[C@@H]1CCCN1C(=O)[C@H](Cc1ccc(O)cc1)NC(=O)[C@H](CO)NC(=O)[C@H](CC(=O)O)NC(C)=O)C(C)C)C(=O)NCC(=O)N[C@@H](CC(C)C)C(=O)N[C@@H](CC(C)C)C(=O)N[C@@H](CCCNC(=N)N)C(N)=O [Compound 230] (Ac-DSYPGWNLV[hArg]IGLLR-NH2) , using PCSK9Δhelix (Homo sapiens, UniProt Q8NBP7) data.
### Response 5.62
